Readings of IC50 for the listed molecules
# assayed.system: platelet ADP receptors (Homo sapiens, UniProt Q9H244)
# Construct: endogenous in cells
# Sequence (Q9H244 whole entry): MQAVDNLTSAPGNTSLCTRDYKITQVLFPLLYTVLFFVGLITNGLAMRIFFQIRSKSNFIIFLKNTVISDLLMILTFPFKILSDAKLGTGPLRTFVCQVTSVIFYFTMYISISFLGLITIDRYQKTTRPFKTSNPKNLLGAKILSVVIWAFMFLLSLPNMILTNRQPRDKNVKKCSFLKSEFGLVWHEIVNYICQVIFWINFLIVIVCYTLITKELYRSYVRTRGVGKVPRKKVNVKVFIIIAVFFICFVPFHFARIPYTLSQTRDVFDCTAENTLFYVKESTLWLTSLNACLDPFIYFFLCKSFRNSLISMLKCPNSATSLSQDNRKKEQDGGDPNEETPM
# test.details: ARB assay: inhibition of [3H]2-MeS-ADP binding to platelets
# condition: IC50 class, [3H]2-MeS-ADP binding to whole human platelets
metric: IC50

molecule="CNc1cc2c(cc1F)C(=O)N(c1ccc(C(=O)NS(=O)(=O)c3ccc(Cl)s3)c(F)c1)CO2 [Example 57]" metric=IC50 assay_value="< 0.05 µM"
molecule="CNc1cc2c(cc1F)C(=O)N(c1ccc(NC(=O)NS(=O)(=O)c3ccc(C)s3)cc1)CO2 [Example 46]" metric=IC50 assay_value="< 0.05 µM"
molecule="CNc1cc2c(cc1F)C(=O)N(c1ccc(NC(=O)NS(=O)(=O)c3ccc(OC)s3)cc1)CO2 [Example 45]" metric=IC50 assay_value="< 0.05 µM"
molecule="CNc1cc2c(cc1F)C(=O)N(c1cc(C)c(NC(=O)NS(=O)(=O)c3ccc(Cl)s3)c(C)c1)CO2 [Example 26]" metric=IC50 assay_value="< 0.05 µM"
molecule="CNc1cc2c(cc1F)C(=O)N(c1ccc(NC(=O)NS(=O)(=O)c3ccc(Cl)s3)cc1)CO2 [Example 5]" metric=IC50 assay_value="< 0.05 µM"
molecule="CNc1cc2c(cc1F)C(=O)N(c1ccc(NC(=O)NS(=O)(=O)c3ccc(Cl)s3)c(C(=O)N(C)C)c1)CO2 [Example 37]" metric=IC50 assay_value="0.05 to 0.5 µM"
